Test system: HEK293 WT BDD-FVIII-Gluc
measurement description: secreted FVIII-Gluc luciferase Z-score vs DMSO control; higher = more FVIII-Gluc secretion
experimental parameters: 5 µM
Short version: secreted FVIII-Gluc luciferase Z-score at least 0.3 is T, less is F.

Before answering, review these 3 worked examples.
Q) For this compound, is measured secreted FVIII-Gluc luciferase Z-score 0.3 or higher? CC(C)=CCc1c(O)cc(O)c2c1O[C@H](c1ccccc1)CC2=O
A) F

Q) What do you get for C=CC(C)(O)CCCC(C)CCCC(C)CCCC(C)C (configuration not stated) ?
A) F

Q) What do you get for COc1ccc(-c2coc3cc(OC4OC(CO)C(O)C(O)C4O)cc(O)c3c2=O)cc1 (configuration not stated) ?
A) F

Note: attention shifts to another entry.
Q) For this compound, is measured secreted FVIII-Gluc luciferase Z-score 0.3 or higher? C=C(CO)C1Cc2c(ccc3c(=O)c4c(oc23)COc2cc(OC)c(OC)cc2-4)O1 (configuration not stated)
A) F

###

Tested on: HEK293 WT BDD-FVIII-Gluc
measurement description: secreted FVIII-Gluc luciferase Z-score vs DMSO control; higher = more FVIII-Gluc secretion
experimental parameters: 5 µM
Short version: secreted FVIII-Gluc luciferase Z-score at least 0.03 is YES, less is NO.

Q) For this compound, is measured secreted FVIII-Gluc luciferase Z-score 0.03 or higher? CN(C)[C@@H]1C(=O)C(C(=O)NCN2CCCC2)=C(O)[C@@]2(O)C(=O)C3=C(O)c4c(O)cccc4[C@@](C)(O)[C@H]3C[C@@H]12
A) YES

Q) What do you get for O=C(O)/C=C/c1ccc(O)c(O)c1 ?
A) NO

Q) What do you get for O=C1C[C@@H](c2ccccc2)Oc2cc(O)cc(O)c21 ?
A) YES

Q) What do you get for COc1cc2ccc(=O)oc2c(O)c1OCC=C(C)C ?
A) NO

Q) What do you get for O=c1oc2c(O)c(O)cc3c(=O)oc4c(O)c(O)cc1c4c23 ?
A) YES

Q) What do you get for CC(C)=CCC/C(C)=C\COc1c2ccoc2cc2oc(=O)ccc12 ?
A) NO

Q) What do you get for O=c1cc(-c2ccc(O)c(O)c2)oc2cc(O)cc(O)c12 ?
A) NO

Note: attention shifts to another entry.
Q) For this compound, is measured secreted FVIII-Gluc luciferase Z-score 0.03 or higher? COc1ccccc1-c1oc2ccccc2c(=O)c1O
A) NO

###

Tested on: HEK293 WT BDD-FVIII-Gluc
measurement description: secreted FVIII-Gluc luciferase Z-score vs DMSO control; higher = more FVIII-Gluc secretion
experimental parameters: 5 µM
secreted FVIII-Gluc luciferase Z-score: recorded values
Lab note: write the figure by itself, no unit.

Q) Record request: secreted FVIII-Gluc luciferase Z-score value, item O=c1cnn(C2OC(CO)C(O)C2O)c(=O)[nH]1 (stereo unspecified)
A) -2.33

Others:
Q) Record request: secreted FVIII-Gluc luciferase Z-score value, item N[C@@H](Cc1ccc(O)cc1)C(=O)O
A) 0.446

Q) What do you get for Nc1nc2c(ncn2[C@H]2C[C@H](O)[C@@H](COP(=O)(O)O)O2)c(=O)[nH]1 ?
A) 0.653

Q) What do you get for C[C@H](CCC(=O)O)[C@H]1CC[C@H]2[C@@H]3[C@H](O)C[C@@H]4C[C@H](O)CC[C@]4(C)[C@H]3CC[C@]12C ?
A) 0.787

Q) What do you get for O=C(O)CCCC[C@@H]1SC[C@@H]2NC(=O)N[C@@H]21 ?
A) 0.929

Q) What do you get for COc1ccc(-c2oc3ccc(C)cc3c(=O)c2O)cc1OC ?
A) -0.624
